target: Human immunodeficiency virus type 1 integrase (Human immunodeficiency virus 1); assay: Binding affinity to HIV1 integrase tetrameric form by fluorescence anisotrophy
Sequence (Q7ZJM1 whole entry): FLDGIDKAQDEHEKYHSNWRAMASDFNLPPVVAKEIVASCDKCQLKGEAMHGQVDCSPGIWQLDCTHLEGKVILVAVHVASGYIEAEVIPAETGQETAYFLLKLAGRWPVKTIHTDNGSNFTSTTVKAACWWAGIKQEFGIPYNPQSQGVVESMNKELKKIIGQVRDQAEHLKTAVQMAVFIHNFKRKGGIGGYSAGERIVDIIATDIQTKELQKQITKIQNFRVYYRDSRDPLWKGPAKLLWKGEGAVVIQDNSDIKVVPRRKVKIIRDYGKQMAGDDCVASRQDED
EXPERIMENTAL ENDPOINT: Kd (µM)
Report the figure in µM without appending any unit label.

SUBSTANCE | Kd [µM]
H-WNSLKIDNLDV-OH | 3.7
H-WIHAEIKNSLKIDNLDVNRCIEALD-OH | 4.4

Please find the next substance below.
Recorded Kd (substance `H-WKKIRRFVSQVIM-OH` ): 12
